Procedure Summary: small-molecule binders of probe aNOTCH2, primary screen, biochemical, small-molecule microarray, 635/667 nm fluorescence (AID 1121);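 further: score merges feature fluorescence read at 667 nm with its signal to noise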
Test Settings: higher = more signal
Attribute Measured: composite z-score
Lab note: record just the number, no unit beside it.

>>> value("CC1(C)C(=O)C(c2ccccc2)=C2CN3C(=O)N(CCc4ccccc4)C(=O)C3(Cc3ccc(F)cc3)C=C21 (stereo not drawn)")
0.246

Query `NC(=O)NCC#Cc1ccc2c(c1)[C@]1(C(=O)N2)[C@H](C(=O)N2CCN(c3ncccn3)CC2)[C@H]2C(=O)O[C@H](c3ccccc3)[C@H](c3ccccc3)N2[C@@H]1c1ccc(OCCO)cc1` yields composite z-score of -0.084

Query `COC(=O)[C@@]1(Cc2ccccc2CN=[N+]=[N-])N=C(c2ccc(OCCCO)cc2)O[C@H]1c1ccccc1CN=[N+]=[N-]` yields composite z-score of -0.101

Query CN1C(=O)C2C=CC(C(O)c3ccc(I)cc3)N(Nc3ccccc3)C2C1=O (stereo not drawn) yields composite z-score of -0.0389

Query `COCCOC(=O)N1C(=O)[C@@]2(c3cc(C#CCNC(N)=O)ccc31)[C@H](c1ccc(O)cc1)N1[C@H](c3ccccc3)[C@H](c3ccccc3)OC(=O)[C@H]1[C@@H]2C(=O)N1CCN(c2ncccn2)CC1` yields composite z-score of -0.175

Query C=CC1c2cc(O)c(OC)cc2CCN1Cc1ccc([N+](=O)[O-])o1 (stereo not drawn) yields composite z-score of -0.0708

Query CC(C)CCC[C@@H](C)[C@H]1CC[C@@]2(C)C3=C(CC[C@]12C)[C@@]1(C)CC[C@H](OC(=O)c2ccccc2)C(C)(C)C1CC3 (stereo partly drawn) yields composite z-score of -0.181

Query `C=CC[C@H](OC(=O)Nc1ccc(SC)cc1)c1ccc(OCCO)cc1` yields composite z-score of -0.0996

Query `COc1cccc(/C=C(\C#N)C(=O)Nc2c(C)n(C)n(-c3ccccc3)c2=O)c1` yields composite z-score of -0.0454

Query `COCCOC(=O)N1C(=O)[C@@]2(c3cc(C#CCCO)ccc31)[C@H](C(=O)N1CCCCCCC1)[C@H]1C(=O)O[C@H](c3ccccc3)[C@H](c3ccccc3)N1[C@@H]2c1ccccc1OCCO` yields composite z-score of 0.662

Query `C=CCN1C(=O)[C@@]2(O[C@@H](CCO)[C@H]([Si](C)(C)c3ccc(OC)cc3)[C@H]2C)c2cc(N3CCOC3=O)ccc21` yields composite z-score of -0.127

Query COc1cc(NN2C(C(O)C3CCCCC3)C=CC3C(=O)N(c4ccccc4)C(=O)C32)cc(OC)c1OC (stereo not drawn) yields composite z-score of 0.0888

Query `[N-]=[N+]=Nc1ccccc1[C@@H]1OC(c2ccc(OCCCO)cc2)=N[C@]1(Cc1ccccc1)C(=O)NCc1ccccc1` yields composite z-score of 0.156

Query O=C1OCC=C[C@H]2OC34C=CCN(c5ccc6ccccc6c5)C(=O)[C@H]3N(CCCCCO)C(=O)[C@@H]4[C@@H]12 (stereo partly drawn) yields composite z-score of -0.0176

Query Cc1ccccc1C(O)C1C=CC2C(=O)NC(=O)C2N1Nc1ccc(Cl)cc1Cl (stereo not drawn) yields composite z-score of -0.0453

Query C=CCC(OC(C)=O)[C@@H]1[C@@H](N(Cc2ccc(-c3cccc(C(F)(F)F)c3)o2)C(=O)c2cccc3ccccc23)c2cc(OCCCO)ccc2N1C(=O)Cc1ccc(OC)cc1 (stereo partly drawn) yields composite z-score of -0.151

* * *

Listing of recorded composite z-score by entry.
Procedure Summary: small-molecule microarray binders of probe aDKK1, primary screen, biochemical, biotinylated probe, 635/667 nm fluorescence (AID 1099);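 further: score merges 667nm spot fluorescence with signal to noise across triplicate slides; reference of the scale not given here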
Test Settings: higher = more signal
Lab note: record just the number, no unit beside it.

>>> value("CN1C(=O)[C@@H]2[C@@H](CC(COc3ccccc3)=C([C@H](O)CCc3ccccc3)[C@@H]2CO)C1=O")
-0.0537
>>> value("CCCCC(=C=CC[C@H](O)c1ccc(OCCO)cc1)C[C@H](O)COCc1ccccc1")
-0.221
>>> value("C=CCC(OC(C)=O)[C@@H]1[C@@H](N(Cc2cc3ccccc3o2)C(=O)c2ccc(-c3ccccc3)cc2)c2cc(OCCCO)ccc2N1C(=O)Cc1ccc(OC)cc1 (some centres undefined)")
-0.102

Would you kindly look at the next entry?
Query `Cc1ccc(S[C@]2(C(=O)NC(C)C)CC(=O)N(Cc3ccccc3Cl)[C@@H]2c2ccc(CO)cc2)cc1` yields composite z-score of 0.17

* * *

Assay System: Epidermal growth factor receptor (Homo sapiens) (UniProt P00533)
Sequence (P00533 whole entry, looked up): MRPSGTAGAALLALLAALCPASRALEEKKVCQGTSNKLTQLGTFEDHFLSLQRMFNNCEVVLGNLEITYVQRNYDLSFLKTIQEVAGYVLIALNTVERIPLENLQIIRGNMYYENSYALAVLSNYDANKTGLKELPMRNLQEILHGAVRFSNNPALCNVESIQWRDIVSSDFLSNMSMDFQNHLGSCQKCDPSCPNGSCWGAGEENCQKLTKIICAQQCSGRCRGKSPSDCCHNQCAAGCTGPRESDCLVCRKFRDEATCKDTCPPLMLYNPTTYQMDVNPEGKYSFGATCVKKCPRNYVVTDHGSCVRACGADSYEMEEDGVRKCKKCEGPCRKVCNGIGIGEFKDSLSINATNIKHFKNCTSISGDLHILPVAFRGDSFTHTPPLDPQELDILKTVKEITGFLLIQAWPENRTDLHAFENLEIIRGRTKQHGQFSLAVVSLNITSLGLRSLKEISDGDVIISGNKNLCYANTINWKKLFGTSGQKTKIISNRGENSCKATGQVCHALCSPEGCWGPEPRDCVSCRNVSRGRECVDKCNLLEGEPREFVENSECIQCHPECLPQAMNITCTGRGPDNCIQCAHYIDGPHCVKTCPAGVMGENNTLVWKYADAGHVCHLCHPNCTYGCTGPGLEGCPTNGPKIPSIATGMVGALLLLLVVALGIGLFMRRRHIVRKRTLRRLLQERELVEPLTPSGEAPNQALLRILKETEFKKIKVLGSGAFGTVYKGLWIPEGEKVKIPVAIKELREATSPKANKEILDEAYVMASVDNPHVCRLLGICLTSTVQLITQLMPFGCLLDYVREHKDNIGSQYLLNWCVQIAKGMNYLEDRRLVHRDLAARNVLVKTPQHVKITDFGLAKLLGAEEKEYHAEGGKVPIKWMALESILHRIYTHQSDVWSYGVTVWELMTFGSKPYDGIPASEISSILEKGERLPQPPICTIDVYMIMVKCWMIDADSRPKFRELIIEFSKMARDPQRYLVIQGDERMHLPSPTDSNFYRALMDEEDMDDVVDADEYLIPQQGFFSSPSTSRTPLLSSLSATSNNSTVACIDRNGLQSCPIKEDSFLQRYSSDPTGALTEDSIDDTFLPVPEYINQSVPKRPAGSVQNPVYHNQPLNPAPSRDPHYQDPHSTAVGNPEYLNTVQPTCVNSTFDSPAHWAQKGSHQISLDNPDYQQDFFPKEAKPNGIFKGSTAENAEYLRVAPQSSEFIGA
Procedure Summary: EGFR binders on small-molecule microarrays, primary screen, biochemical, small-molecule microarray, 635 nm fluorescence (AID 1104);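 further: score merges 667 nm emission intensity with spot signal to noise over triplicate slides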
Test Settings: EGFR binding, higher = more signal
// map composite z-score to label using b0 = under -0.1, b1 = from -0.1 up to 0.3, b2 = 0.3 and over

The examples below pair each entry with its known result.
>>> assigned_class("COCC1C2CC[C@H]3C(OCc4ccc(OC)cc4)OC[C@]4(C)[C@H]3C2=C(CN4C(=O)OC(C)(C)C)[C@H](C)C1COC (some centres not stated)")
"b2"
>>> assigned_class("COC(=O)C1=CC(CCCO)=CC(C)N(Cc2cccc(OC(F)(F)F)c2)C=C1C(=O)OC (configuration not stated)")
"b0"
>>> assigned_class("C=C(/C(=C/C[C@@H](OC(C)=O)c1ccc(CO)o1)c1cc(C(=O)OC)ccc1OC)C(C)C")
"b0"
>>> assigned_class("COCCOC(=O)N1C(=O)[C@@]2(c3cc(C#CCCO)ccc31)[C@H](C(N)=O)[C@H]1C(=O)O[C@H](c3ccccc3)[C@H](c3ccccc3)N1[C@@H]2c1ccc(OCCO)cc1")
"b2"
>>> assigned_class("COC(=O)C(CC#Cc1ccc2c(c1)[C@]1(C(=O)N2)[C@H](c2ccc(OCCO)cc2)N2[C@H](c3ccccc3)[C@H](c3ccccc3)OC(=O)[C@H]2[C@@H]1C(=O)N1CCN(c2ncccn2)CC1)C(=O)OC")
"b2"
>>> assigned_class("COCCOC(=O)N1C(=O)[C@@]2(c3cc(C#CCC(C(=O)OC)C(=O)OC)ccc31)[C@H](C(=O)NC[C@H](O)c1ccccc1)[C@H]1C(=O)O[C@H](c3ccccc3)[C@H](c3ccccc3)N1[C@@H]2c1ccc(O)cc1")
"b0"
>>> assigned_class("C=CCC(OC(C)=O)[C@@H]1[C@@H](N(Cc2cccc3ccccc23)C(=O)c2ccc(-c3ccccc3)cc2)c2cc(OCCCO)ccc2N1C(=O)c1ccc(-c2ccccc2)cc1 (some centres not stated)")
"b0"
>>> assigned_class("CCOC(=O)C1=CC[C@@H](c2ccccc2)N(S(=O)(=O)c2ccc(C)cc2)[C@H]1c1cccc(OC)c1")
"b1"
>>> assigned_class("COc1cc(NN2C(C(O)c3ccccc3)C=CC3C(=O)N(C)C(=O)C32)cc(OC)c1OC (configuration not stated)")
"b1"
>>> assigned_class("[N-]=[N+]=Nc1ccccc1C[C@]1(C(=O)NCc2ccccc2)COC(c2ccc(OCCCO)cc2)=N1")
"b0"

Query string: Dear colleague, I would appreciate it if you could identify the bin for `CN(C)C(=O)[C@@]1(CCC(=O)OC(C)(C)C)N=C(c2ccc(OCCCO)cc2)O[C@H]1c1ccccc1CN=[N+]=[N-]` and reply at your convenience.
Result string: b0

Query string: Dear colleague, I would appreciate it if you could identify the bin for `COc1ccc(NC(=O)O[C@H]2[C@@H]3OC(=O)[C@H](Cc4cccc(Br)c4)C/C=C/C[C@@H](Cc4cccc(Br)c4)C(=O)O[C@H]3[C@@H](OC)O[C@@H]2CO)cc1` and reply at your convenience.
Result string: b2

Query string: Dear colleague, I would appreciate it if you could identify the bin for `O=C1N[C@@H](Cc2ccccc2)C(=O)N2[C@@H]1C[C@@H](C(=O)O)[C@H]2c1ccc(O)cc1` and reply at your convenience.
Result string: b2

Query string: Dear colleague, I would appreciate it if you could identify the bin for `Cc1cccc([C@H]2C[C@H]3C(I)=C[C@@H]2C(=O)[C@]32CO2)c1` and reply at your convenience.
Result string: b1

Query string: Dear colleague, I would appreciate it if you could identify the bin for CC(C)C[C@@H]1NC(=O)[C@@]23C(=O)N[C@@H](Cc4ccccc4)C2[C@H](C)[C@@]2(C)O[C@H]2C3/C=C/C/C=C\CNC(=O)[C@@H](C)NC1=O (some centres not stated) and reply at your convenience.
Result string: b2

Query string: Dear colleague, I would appreciate it if you could identify the bin for `C=C(/C(=C/C[C@H](OC(=O)c1ccncc1)c1cccc(OCCO)c1)c1cnc2ccccc2c1)C(C)C` and reply at your convenience.
Result string: b2

Query string: Dear colleague, I would appreciate it if you could identify the bin for CC(=O)n1cc(C(O)C2C=CC3C(=O)N(c4ccccc4)C(=O)C3N2Nc2ccc(C(C)C)cc2)c2ccccc21 (configuration not stated) and reply at your convenience.
Result string: b1

Query string: Dear colleague, I would appreciate it if you could identify the bin for CCC(CC)C(O)C1C=CC2C(=O)N(c3ccccc3)C(=O)C2N1Nc1ccc([N+](=O)[O-])cc1 (configuration not stated) and reply at your convenience.
Result string: b1

Query string: Dear colleague, I would appreciate it if you could identify the bin for `COCCCNC(=O)[C@@H]1c2ccccc2C(=O)N(C2Cc3ccccc3C2)[C@H]1c1ccc(CO)cc1` and reply at your convenience.
Result string: b1

Query string: Dear colleague, I would appreciate it if you could identify the bin for C=CCC(OC(C)=O)[C@@H]1[C@@H](N(Cc2ccc(-c3ccccc3)cc2)C(=O)c2ccc(C)cc2)c2cc(OCCCO)ccc2N1C(=O)Cc1ccc2ccccc2c1 (some centres not stated) and reply at your convenience.
Result string: b1

Query string: Dear colleague, I would appreciate it if you could identify the bin for `CC(C)[Si]1(C(C)C)OCc2cc(-c3ccc(-c4ccc(Cl)c(Cl)c4)o3)nc(CCc3ccccc3)c21` and reply at your convenience.
Result string: b0
